Data credit: PubChem BioAssay (EPA / NIEHS)

experiment: CCTE_Shafer_MEA_dev_per_burst_interspike_interval: CCTE's Neural Network Formation Assay for Burst Interspike Interval, Shafer Lab (AID 2284044);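 also: mean spike spacing inside bursts as AUC over recordings on days 5 7 9 12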
Activity calls are given as the source filed them. The calls were made as follows: active = hit-call score of the fitted dose curve at least 0.9, where 1 is the maximum; inactive = score below 0.9.

{"compound": "C[Si](Cn1cncn1)(c1ccc(F)cc1)c1ccc(F)cc1", "outcome": "inactive"}
{"compound": "CCOP(=O)(SC(C)CC)N1CCSC1=O (stereo unspecified)", "outcome": "inactive"}
{"compound": "CCOP(=S)(OCC)Oc1cc(C)nc(C(C)C)n1", "outcome": "inactive"}
{"compound": "CCOP(=S)(OCC)SCCSCC", "outcome": "inactive"}
{"compound": "CCCSP(=O)(OCC)Oc1ccc(Br)cc1Cl (stereo unspecified)", "outcome": "inactive"}
{"compound": "CSC1=N[C@@](C)(c2ccccc2)C(=O)N1Nc1ccccc1", "outcome": "inactive"}
{"compound": "CN(C)[C@@H]1C(=O)C(C(N)=O)=C(O)[C@@]2(O)C(=O)C3=C(O)c4c(O)cccc4[C@@](C)(O)[C@H]3[C@H](O)[C@@H]12", "outcome": "inactive"}
{"compound": "CC1=NNC(=O)N(/N=C/c2cccnc2)C1", "outcome": "inactive"}
{"compound": "CC(C)=CC1C(C(=O)OCN2C(=O)C3=C(CCCC3)C2=O)C1(C)C (stereo unspecified)", "outcome": "inactive"}
{"compound": "CCOC(=O)CC(SP(=O)(OC)OC)C(=O)OCC (stereo unspecified)", "outcome": "inactive"}
{"compound": "CCOP(=S)(OCC)Oc1ccc([N+](=O)[O-])cc1", "outcome": "inactive"}

----------
read-out: ABC Transporter (ABCB1), ABCB1 (gene 5243); assay: LTEA_HepaRG_ABCB1: Life Technologies and Expression Analysis (LTEA) Assay for ABC Transporter (ABCB1) using HepaRG (AID 2283460); conditions: mRNA level, 48 h; actives raise or lower the signal
Activity calls are given as the source filed them. How the source made its calls: active means hit-call score of the fitted dose curve at least 0.9, where 1 is the maximum; inactive means score below 0.9.
Outcome codes: active, inactive

{"compound": "CCOP(=S)(Oc1cnc(C(C)(C)C)nc1)OC(C)C (configuration not stated)", "assignedLabel": "active"}
{"compound": "CCOP(=S)(OCC)OC(Cl)C(Cl)(Cl)Cl (configuration not stated)", "assignedLabel": "inactive"}
{"compound": "CCOP(=S)(OCC)Oc1cc(C)nc(C(C)C)n1", "assignedLabel": "inactive"}
{"compound": "CCc1cnc(C2=NC(C)(C(C)C)C(=O)N2)c(C(=O)O)c1 (configuration not stated)", "assignedLabel": "inactive"}
{"compound": "CCNc1nc(Cl)nc(NC(C)(C)C#N)n1", "assignedLabel": "inactive"}
{"compound": "COP(=O)(OC)OC(Br)C(Cl)(Cl)Br (configuration not stated)", "assignedLabel": "inactive"}
{"compound": "COc1ccc(C(=CC(=O)N2CCOCC2)c2ccc(Cl)cc2)cc1OC", "assignedLabel": "inactive"}
{"compound": "S=C1NCCN1", "assignedLabel": "inactive"}
{"compound": "COc1cc(OC)nc(Sc2cccc(Cl)c2C(=O)O)n1", "assignedLabel": "inactive"}
{"compound": "C#CCC1=C(C)C(OC(=O)C2C(C=C(C)C)C2(C)C)CC1=O (configuration not stated)", "assignedLabel": "inactive"}
{"compound": "Cc1nn(-c2cc(NS(C)(=O)=O)c(Cl)cc2Cl)c(=O)n1C(F)F", "assignedLabel": "active"}
{"compound": "CC1(C(=O)Nc2ccc(O)c(Cl)c2Cl)CCCCC1", "assignedLabel": "inactive"}

----------
Experiment: CCTE_Deisenroth_AIME_384WELL_CTox_Active: Cytotoxicity Assessment (CTOX) in CCTE's 384-well Estrogen Receptor Transactivation Assay with AIME metabolic competence (metabolism positive), Deisenroth Lab (AID 2284037);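 also: chemicals first conditioned 2 h by alginate-bound induced rat liver S9 before cells; activity means signal loss indicating cell death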
Method: CCTE_Deisenroth_AIME_384WELL (AIME metabolism assay) is a cell-based, single-readout assay that uses VM7Luc4E2, a human mammary gland/breast cell line, with measurements taken at 24 hour after chemical dosing in a 384-well plate.CCTE_Deisenroth_AIME_384WELL_CTox_Active is one of four assay components measured or calculated from the CCTE_Deisenroth_AIME_384WELL assay. […] This assay endpoint, CCTE_Deisenroth_AIME_384WELL_CTox_Active, was analyzed with bidirectional fitting in the ERTA assay. […]
Results filed as inconclusive are left out. The source made the active and inactive calls. How the source made its calls: active means hit-call score of the fitted dose curve at least 0.9, where 1 is the maximum; inconclusive means response in the unintended direction; inactive means score below 0.9.
Outcome codes: active, inactive

{"compound": "CN(C)[C@@H]1C(=O)C(C(N)=O)=C(O)[C@@]2(O)C(=O)C3=C(O)c4c(O)cccc4[C@@](C)(O)[C@H]3[C@H](O)[C@@H]12", "assignedLabel": "inactive"}
{"compound": "C#CC(C)(C)NC(=O)c1cc(Cl)cc(Cl)c1", "assignedLabel": "inactive"}
{"compound": "CCCCOC(=O)[C@@H](C)Oc1ccc(Oc2ccc(C#N)cc2F)cc1", "assignedLabel": "inactive"}
{"compound": "CC1=NNC(=O)N(/N=C/c2cccnc2)C1", "assignedLabel": "inactive"}
{"compound": "COP(=O)(NC(C)=O)SC (configuration not stated)", "assignedLabel": "inactive"}
{"compound": "O=C(O)c1cc(Oc2ccc(C(F)(F)F)cc2Cl)ccc1[N+](=O)[O-]", "assignedLabel": "inactive"}
{"compound": "CCOP(=O)(SC(C)CC)N1CCSC1=O (configuration not stated)", "assignedLabel": "inactive"}
{"compound": "COP(=O)(OC)SCn1c(=O)oc2cc(Cl)cnc21", "assignedLabel": "inactive"}
{"compound": "Nc1nc(N)nc(NC2CC2)n1", "assignedLabel": "inactive"}
{"compound": "O=[N+]([O-])c1cc(C(F)(F)F)c(Cl)c([N+](=O)[O-])c1Nc1ncc(C(F)(F)F)cc1Cl", "assignedLabel": "active"}
{"compound": "CC1(C(=O)Nc2ccc(O)c(Cl)c2Cl)CCCCC1", "assignedLabel": "inactive"}
{"compound": "COc1ccc(C(=CC(=O)N2CCOCC2)c2ccc(Cl)cc2)cc1OC", "assignedLabel": "inactive"}

----------
Read-out: Cytochrome P450 3A4 (Homo sapiens) (UniProt P08684)
Sequence (P08684 whole entry, looked up): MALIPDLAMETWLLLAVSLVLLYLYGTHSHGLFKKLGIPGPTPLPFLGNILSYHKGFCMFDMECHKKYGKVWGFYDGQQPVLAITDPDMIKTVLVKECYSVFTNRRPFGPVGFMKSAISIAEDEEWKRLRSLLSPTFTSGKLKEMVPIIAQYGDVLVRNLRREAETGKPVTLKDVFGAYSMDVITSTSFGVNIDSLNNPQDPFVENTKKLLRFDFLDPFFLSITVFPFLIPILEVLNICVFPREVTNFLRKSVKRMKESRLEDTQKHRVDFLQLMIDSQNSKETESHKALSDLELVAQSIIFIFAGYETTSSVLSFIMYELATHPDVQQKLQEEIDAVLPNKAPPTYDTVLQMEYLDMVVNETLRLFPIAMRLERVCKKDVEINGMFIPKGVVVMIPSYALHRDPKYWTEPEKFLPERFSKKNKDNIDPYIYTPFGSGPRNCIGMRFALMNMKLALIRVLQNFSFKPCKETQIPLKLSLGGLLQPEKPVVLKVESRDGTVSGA
Assay: LTEA_HepaRG_CYP3A4: Life Technologies and Expression Analysis (LTEA) Assay for CYP3A4 using HepaRG (AID 2283487)
Details: mRNA level, 48 h; actives raise or lower the signal
Description: LTEA_HepaRG is a cell based, multiplexed-readout assay that uses HepaRG, a human liver cell line, with measurements taken at 48 hours after chemical dosing on a 96-well plate.LTEA_HepaRG_CYP3A4 is one of 102 assay component(s) measured in the LTEA HepaRG cell culture assay. It is a marker of NR mediated metabolism.Data from the assay component LTEA_HepaRG_CYP3A4 was analyzed into 1 endpoint. […]
Calls of active or inactive are those of the source. How the source made its calls: active means hit-call score of the fitted dose curve at least 0.9, where 1 is the maximum; inactive means score below 0.9.
Outcome codes: active, inactive

{"molecule": "CC[C@H](C)[C@H]1O[C@]2(C=C[C@@H]1C)C[C@@H]1C[C@@H](C/C=C(\\C)[C@@H](O[C@H]3C[C@H](OC)[C@@H](O[C@H]4C[C@H](OC)[C@@H](NC)[C@H](C)O4)[C@H](C)O3)[C@@H](C)/C=C/C=C3\\CO[C@@H]4[C@H](O)C(C)=C[C@@H](C(=O)O1)[C@]34O)O2", "assignedLabel": "active"}
{"molecule": "COP(=O)(OC)SCn1c(=O)oc2cc(Cl)cnc21", "assignedLabel": "active"}
{"molecule": "CCOP(=O)(SC(C)CC)N1CCSC1=O (centres undefined)", "assignedLabel": "active"}
{"molecule": "CON=C(C(=O)OC)c1ccccc1CON=C(C)c1cccc(C(F)(F)F)c1", "assignedLabel": "active"}
{"molecule": "Cc1ccn2nc(S(=O)(=O)Nc3c(F)cccc3F)nc2n1", "assignedLabel": "active"}
{"molecule": "CSc1nc(NC(C)C)nc(NC(C)C)n1", "assignedLabel": "active"}
{"molecule": "CCCOc1nn(C(=O)NS(=O)(=O)c2ccccc2C(=O)OC)c(=O)n1C", "assignedLabel": "inactive"}
{"molecule": "CCOC(=O)CC(SP(=O)(OC)OC)C(=O)OCC (centres undefined)", "assignedLabel": "inactive"}
{"molecule": "CCC(CC)Nc1c([N+](=O)[O-])cc(C)c(C)c1[N+](=O)[O-]", "assignedLabel": "active"}

----------
experiment: CCTE_Mundy_HCI_Cortical_NOG_NeuronCount: CCTE's Neurite Outgrowth Assay in rat cortical cells for Neuron Count, Mundy Lab (AID 2284236);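 also: neurons counted by imaging betaIII-tubulin and Hoechst stained cortical cells; cells exposed to compound for about 48 hours before fixation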
Results filed as inconclusive are left out. Activity calls are given as the source filed them. How the source made its calls: active means hit-call score of the fitted dose curve at least 0.9, where 1 is the maximum; inconclusive means response in the unintended direction; inactive means score below 0.9.
Outcome codes: active, inactive

{"compound": "CCOP(=S)(OCC)Oc1ccc2c(C)c(Cl)c(=O)oc2c1", "assignedLabel": "inactive"}
{"compound": "CCOP(=O)(NC(C)C)Oc1ccc(SC)c(C)c1 (configuration not stated)", "assignedLabel": "inactive"}
{"compound": "CN(C)[C@@H]1C(=O)C(C(N)=O)=C(O)[C@@]2(O)C(=O)C3=C(O)c4c(O)cccc4[C@@](C)(O)[C@H]3[C@H](O)[C@@H]12", "assignedLabel": "active"}
{"compound": "CSC1=N[C@@](C)(c2ccccc2)C(=O)N1Nc1ccccc1", "assignedLabel": "inactive"}
{"compound": "CC(=NC#N)N(C)Cc1ccc(Cl)nc1", "assignedLabel": "inactive"}
{"compound": "CCOP(=O)(OCC)Oc1cc(C)nc(C(C)C)n1", "assignedLabel": "inactive"}
{"compound": "CC(C)N(C(=O)SCC(Cl)=C(Cl)Cl)C(C)C", "assignedLabel": "inactive"}
